# Assay info: chemical genetic growth profiling, strain panel (AID 1159580);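 also: tested at 20 µM; growth read once vehicle control cultures reached saturation at 30 °C; 1 = growth at the plate median or of vehicle wells; lower values mean less growth of the strain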
# Measurement conditions: S. cerevisiae deletion strains, growth OD, locus YBR229C, strain ROT2, stronger effect = lower value
Screen size: about 5,500 compounds; about 2,000 (36%) were called active. Roughly 18% stayed inconclusive and do not appear here. This is one part of the list.
Readout label: normalized growth
Returns: the value as a bare number; no unit string appended.

[in] Consider the compound CCN(CCO)CCCC(C)Nc1ccnc2cc(Cl)ccc12 (stereo not given) and give its measured normalized growth.
[out] 0.991

[in] Ok, now CCOC(=O)C(=CNNC(=O)c1ccccc1-n1cccc1)C(=O)OCC
[out] 1.01

[in] Ok, now CCN(CC)CCCC(C)Nc1ccnc2cc(Cl)ccc12 (stereo not given)
[out] 1.01

[in] Ok, now COP(=O)(OC)OC=C(Cl)Cl
[out] 0.965

[in] Ok, now COc1cc(NS(=O)(=O)c2ccc(N)cc2)nc(OC)n1
[out] 0.987

[in] Ok, now C=C(C)C1CNC(C(=O)O)C1CC(=O)O (stereo not given)
[out] 1.01

[in] Ok, now CC(C[N+](C)(C)C)OC(N)=O (stereo not given)
[out] 0.994

[in] Ok, now CCOC(=O)C(=CNc1ccccc1N1CCOCC1)C(=O)OCC
[out] 0.989

[in] Ok, now CS(=O)(=O)c1ccc(C2=C(c3ccccc3)C(=O)OC2)cc1
[out] 1

[in] Ok, now C[N+](C)(C)CCOC(N)=O
[out] 1.01

[in] Ok, now CC1=C(C(C)O)C2=NC1C=c1[nH]c(c(C)c1C(C)O)=Cc1[nH]c(c(CCC(=O)O)c1C)C=c1[nH]c(c(C)c1CCC(=O)O)=C2 (stereo not given)
[out] 1

[in] Ok, now Cc1cccc(Cn2c(C)c(C)c(S(=O)(=O)c3ccccc3)c2N)c1C
[out] 1.01

[in] Ok, now ClC1=C(Cl)C2(Cl)C3C4C=CC(C4)C3C1(Cl)C2(Cl)Cl (stereo not given)
[out] 0.997

[in] Ok, now Cc1ccc(OS(=O)(=O)c2ccc(C#N)cc2)c(Br)c1
[out] 1

[in] Ok, now COc1ccc(OC)c(S(=O)(=O)Nc2ccc(C#N)cc2)c1
[out] 1.01

[in] Ok, now Cc1cccc(C)c1OCC(C)N (stereo not given)
[out] 0.998

[in] Ok, now O=C(O)c1cc2ccccc2[nH]1
[out] 1

[in] Ok, now COc1ccc2c3c1O[C@H]1C[C@@H](O)C=C[C@@]31CCN(C)C2
[out] 1

[in] Ok, now c1ccc(N=Nc2ccccc2)cc1
[out] 1

[in] Ok, now CCOC(=O)c1cnc2cc(C)nn2c1C
[out] 0.994

[in] Ok, now NC(=O)c1ccc[n+]([C@@H]2O[C@H](COP(=O)([O-])OP(=O)(O)OC[C@H]3O[C@@H](n4cnc5c(N)ncnc54)[C@H](O)[C@@H]3O)[C@@H](O)[C@H]2O)c1
[out] 0.949

[in] Ok, now C[C@H]1OC(n2cc(F)c(=O)[nH]c2=O)C(O)[C@@H]1O (stereo not given in full)
[out] 1.01

[in] Ok, now CCCCCCCCCCCCCCCC(=O)OC/C=C(C)/C=C/C=C(C)/C=C/C1=C(C)CCCC1(C)C
[out] 0.992

[in] Ok, now C=C1C([C@]2(C)C(CC(=O)OC)[C@@](C)(COC(C)=O)OC(=O)C[C@@H]2OC(C)=O)[C@@H](OC=O)[C@H](OC(=O)C(OC(C)=O)C(C)CC)[C@@]2(C)[C@H](c3ccoc3)CC(=O)C12O (stereo not given in full)
[out] 1.01

[in] Ok, now COc1cc2c(cc1OC)[C@@H]1C(=O)c3ccc(O)c(CC=C(C)C)c3O[C@@H]1CO2
[out] 0.986

[in] Ok, now CC1(C)OC(=O)NC1=O
[out] 0.984

[in] Ok, now CC(C(=O)O)c1cccc(Oc2ccccc2)c1 (stereo not given)
[out] 0.94

[in] Ok, now COc1cc2c(cc1OC)Cc1cc(OC)c(OC)cc1Cc1cc(OC)c(OC)cc1C2
[out] 1.02

[in] Ok, now CC(C(=O)O)c1ccc(-c2ccccc2)c(F)c1 (stereo not given)
[out] 0.993

[in] Ok, now CCN(CC)CCNC(=O)c1cc(Br)c(N)cc1OC
[out] 0.957

[in] Ok, now CCOC(=O)COc1nc(-c2cccs2)cc(C(F)(F)F)c1C#N
[out] 0.97

[in] Ok, now COc1ccc(CN2C(=O)CSC2c2ccccn2)cc1 (stereo not given)
[out] 0.995

[in] Ok, now CCOC(=O)C(=CNc1cccc(C#N)c1)C(=O)OCC
[out] 0.987

[in] Ok, now C=Cc1c2[nH]c(c1C)C=c1[nH]c(c(C)c1C=C)=CC1N=C(C=c3[nH]c(c(C)c3CCC(=O)O)=C2)C(CCC(=O)O)=C1C (stereo not given)
[out] 0.961

[in] Ok, now CCOC(=O)C(=O)C1(C(=O)OCC)Oc2cc(OC)cc(OC)c2C(=O)C1c1ccccc1 (stereo not given)
[out] 0.986

[in] Ok, now CC(=O)OCC[N+](C)(C)C
[out] 1.01

[in] Ok, now CC(C(=O)O)c1cccc(C(=O)c2ccccc2)c1 (stereo not given)
[out] 1

[in] Ok, now CC(N)C(=O)OC(C)(C)Cc1ccc(Cl)cc1 (stereo not given)
[out] 0.957

[in] Ok, now CCOC(=O)C(C)(C)Oc1ccc(Cl)cc1
[out] 1.01

[in] Ok, now COc1ccc2cc([C@H](C)CO)ccc2c1
[out] 0.947

[in] Ok, now O=C1c2cccc3cc([N+](=O)[O-])cc(c23)C(=O)N1CCO
[out] 1.02

[in] Ok, now COc1cc2c(cc1OC)CC(=O)OC2
[out] 0.984

[in] Ok, now O=C(CSc1nnnn1-c1ccccc1)NC1Cc2ccccc2C1
[out] 0.998

[in] Ok, now COc1ccc2c(c1OC)C(=O)O[C@@H]2[C@H]1c2cc3c(cc2CCN1C)OCO3
[out] 1.01

[in] Ok, now O=C1c2cccc3c([N+](=O)[O-])ccc(c23)C(=O)N1Cc1ccco1
[out] 0.94

* * *

Can you tell me normalized growth for the items I'm about to list?
# Assay info: chemical genetic growth profiling, strain panel (AID 1159580);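 also: tested at 20 µM; growth read once vehicle control cultures reached saturation at 30 °C; 1 = growth at the plate median or of vehicle wells; lower values mean less growth of the strain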
# Measurement conditions: S. cerevisiae deletion strains, growth OD, locus YOR231W, strain MKK1, stronger effect = lower value
The whole screen tested about 5,500 compounds, of which about 2,000 (36%) were called active. Not shown: some 18% with an inconclusive outcome. The list shows a part of the results.
Returns: the value as a bare number; no unit string appended.

[in] Consider the compound C[N+](C)(C)CCCCCC[N+](C)(C)C and give its measured normalized growth.
[out] 1.09

[in] Ok, now CS(=NC(=O)c1cccc(Cl)c1)c1ccc(OC(=O)c2ccc(Cl)cc2)cc1 (configuration not stated)
[out] 0.909

[in] Ok, now NCCSSCCN
[out] 1.09

[in] Ok, now Nc1ccccc1SCc1c(Cl)cccc1Cl
[out] 0.751

[in] Ok, now CNCCc1ccccn1
[out] 1.02

[in] Ok, now Oc1cc(Cl)ccc1Oc1ccc(Cl)cc1Cl
[out] 0.109

[in] Ok, now Cc1ncc(CSSCc2cnc(C)c(O)c2CO)c(CO)c1O
[out] 1.01

[in] Ok, now C[N+](C)(C)CCCCCCCCCC[N+](C)(C)C
[out] 0.995

[in] Ok, now COC1=CC(=O)C[C@@H](C)[C@]12Oc1c(Cl)c(OC)cc(OC)c1C2=O
[out] 1.01

[in] Ok, now CCCCNc1cc(C(=O)O)cc(S(N)(=O)=O)c1Oc1ccccc1
[out] 1.07

[in] Ok, now O=C(N/C=C/c1ccsc1)Nc1cc(C(F)(F)F)cc(C(F)(F)F)c1
[out] 0.507

[in] Ok, now O=C(O)c1cc2ccccc2c(Cc2c(O)c(C(=O)O)cc3ccccc23)c1O
[out] 0.875

* * *

Can you tell me normalized growth for the items I'm about to list?
# Assay info: chemical genetic growth profiling, strain panel (AID 1159580);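 also: tested at 20 µM; growth read once vehicle control cultures reached saturation at 30 °C; 1 = growth at the plate median or of vehicle wells; lower values mean less growth of the strain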
# Measurement conditions: S. cerevisiae deletion strains, growth OD, locus YLR384C, strain iki3, stronger effect = lower value
The whole screen tested about 5,500 compounds, of which about 2,000 (36%) were called active. About 18% were inconclusive and are not listed. Some of the results follow.

[in] Consider the compound COc1ccc2c(c1OC)C(=O)O[C@@H]2[C@H]1c2cc3c(cc2CCN1C)OCO3 and give its measured normalized growth.
[out] 0.983 (inactive)

[in] Ok, now CC1=C(C/C=C(\C)CCC[C@H](C)CCC[C@H](C)CCCC(C)C)C(=O)c2ccccc2C1=O
[out] 0.988 (inactive)

[in] Ok, now COc1cc(NC(C)CCCN)c2ncccc2c1 (stereo not given)
[out] 1.02 (inactive)

[in] Ok, now CC1=C(/C=C/C(C)=C/C=C/C(C)=C/C=C/C=C(C)/C=C/C=C(C)/C=C/C2=C(C)C(=O)CCC2(C)C)C(C)(C)CCC1=O
[out] 0.998 (inactive)

[in] Ok, now COC1=C(OC)C(=O)C(C/C=C(\C)CC/C=C(\C)CC/C=C(\C)CC/C=C(/C)CC/C=C(\C)CC/C=C(\C)CC/C=C(\C)CC/C=C(\C)CC/C=C(\C)CCC=C(C)C)=C(C)C1=O
[out] 0.988 (inactive)

[in] Ok, now ClC1=C(Cl)C2(Cl)C3C(Cl)C=CC3C1(Cl)C2(Cl)Cl (stereo not given)
[out] 1.01 (inactive)

[in] Ok, now COP(=O)(OC)OC=C(Cl)Cl
[out] 0.998 (inactive)

[in] Ok, now NCCSSCCN
[out] 0.987 (inactive)

[in] Ok, now CCCCCCCCCCCCCCCC(=O)OC/C=C(C)/C=C/C=C(C)/C=C/C1=C(C)CCCC1(C)C
[out] 1.02 (inactive)

[in] Ok, now CC1(C)OC(=O)NC1=O
[out] 1.01 (inactive)
